- assay-target: Disintegrin and metalloproteinase domain-containing protein 17 (Homo sapiens)
pIC50: −log10 of the molar value.
The threshold is inclusive: pIC50 of exactly 7 counts as 1; values below receive -1.

Example cases with answers are listed next.
{"columns": ["compound", "assay-target", "label"],
 "data": [
  ["COc1cc(Oc2ccc(SCC(C)C(=O)NO)cc2)cc(OC)c1OC (stereo unspecified)", "Disintegrin and metalloproteinase domain-containing protein 17 (Homo sapiens)", -1],
  ["CNC(=O)[C@@H]1Cc2ccc(cc2)OCCCC[C@H](C(=O)NO)[C@@H](CCCc2cc(C(F)(F)F)cc(C(F)(F)F)c2)C(=O)N1", "Disintegrin and metalloproteinase domain-containing protein 17 (Homo sapiens)", 1],
  ["CNC(=O)[C@@H]1Cc2ccc(cc2)OCCCC[C@H](C(=O)NO)[C@@H](CCCc2cc(OC)ccc2OC)C(=O)N1", "Disintegrin and metalloproteinase domain-containing protein 17 (Homo sapiens)", 1]
]}

Could you now consider this next compound?
Exercise: Given the entry CNC(=O)[C@@H]1Cc2ccc(cc2)OCCCC[C@H](C(=O)NO)[C@@H](CCCc2ccc(Cl)cc2)C(=O)N1 , answer whether its pIC50 meets or surpasses 7.
Key: 1

----------
The following compounds are shown together with reported pIC50 values.
- assay-target: Disintegrin and metalloproteinase domain-containing protein 17 (Homo sapiens, UniProt P78536)
- Sequence (P78536 whole entry, the tested form may be a part): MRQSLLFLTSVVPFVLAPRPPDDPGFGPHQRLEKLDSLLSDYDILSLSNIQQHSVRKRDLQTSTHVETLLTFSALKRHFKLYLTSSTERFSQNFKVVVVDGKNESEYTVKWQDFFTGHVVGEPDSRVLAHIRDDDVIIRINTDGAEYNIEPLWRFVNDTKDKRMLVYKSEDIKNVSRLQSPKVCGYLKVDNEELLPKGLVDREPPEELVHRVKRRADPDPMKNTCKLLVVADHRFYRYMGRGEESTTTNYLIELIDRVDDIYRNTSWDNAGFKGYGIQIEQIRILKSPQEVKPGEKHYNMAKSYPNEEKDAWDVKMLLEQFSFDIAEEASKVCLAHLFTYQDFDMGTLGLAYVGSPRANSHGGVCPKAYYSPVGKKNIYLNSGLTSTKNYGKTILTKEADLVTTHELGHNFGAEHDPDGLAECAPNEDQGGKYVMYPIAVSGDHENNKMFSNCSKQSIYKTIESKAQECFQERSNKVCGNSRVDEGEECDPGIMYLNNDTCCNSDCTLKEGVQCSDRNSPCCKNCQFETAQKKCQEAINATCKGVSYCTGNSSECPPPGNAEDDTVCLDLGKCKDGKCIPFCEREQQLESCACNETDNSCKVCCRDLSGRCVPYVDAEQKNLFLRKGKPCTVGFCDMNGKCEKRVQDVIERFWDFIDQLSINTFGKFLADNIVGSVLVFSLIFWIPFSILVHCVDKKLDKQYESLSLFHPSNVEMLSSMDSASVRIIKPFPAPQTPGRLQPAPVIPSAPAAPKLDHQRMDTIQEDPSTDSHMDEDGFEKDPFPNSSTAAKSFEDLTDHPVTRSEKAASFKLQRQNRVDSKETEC
- Type: functional, cell-based, THP-1
// field semantics: pIC50 = negative decimal log of concentration (mol/L)

{"columns": ["structure-smiles", "pIC50"],
 "data": [
  ["CNC(=O)[C@@H]1Cc2ccc(cc2)OCCCC[C@H](C(=O)NO)[C@@H](CCCc2ccc(Cl)cc2)C(=O)N1", 6.36],
  ["CNC(=O)[C@@H]1Cc2ccc(cc2)OCCCC[C@H](C(=O)NO)[C@@H](CCCc2cc(OC)ccc2OC)C(=O)N1", 5.39],
  ["CNC(=O)[C@@H]1Cc2ccc(cc2)OCCCC[C@H](C(=O)NO)[C@@H](CCCc2cc(C(F)(F)F)cc(C(F)(F)F)c2)C(=O)N1", 6.52]
]}

# compound COCCOc1cc(CCC[C@H]2C(=O)N[C@H](C(=O)c3ccccc3)Cc3ccc(cc3)OCCCC[C@@H]2C(=O)NO)cc(OC)c1 ; its pIC50 = 4.82
